The origin of these recorded values is patent US20190321483A1.

The entries below come with measured EC50 (ng/ml), cell viability after 7 days, Human total nucleated cells values attached.
- tested-on: Human cKIT on human mobilized peripheral blood hematopoietic stem cells (human, UniProt P10721 26-976)
- assay-procedure: cell-based or functional assay
Quick note: unit goes after the number.

J15: Anti-cKIT Fab′1 conjugated to Compound (5), DAR 4 (Fab, V domains shown, Compound (5) on native cysteine LC-214C (EU); Compound (5) on native cysteines HC-220C-226C-229C (EU)) VH: QVQLVQSGAEVKKPGSSVKVSCKASGGTFSSYAISWVRQAPGQGLEWMGVIFPAEGAPGYAQKFQGRVTITADESTSTAYMELSSLRSEDTAVYYCARGGYISDFDVWGQGTLVTVSS VL: DIQMTQSPSSLSASVGDRVTITCRASQSISNYLAWYQQKPGKAPKLLIYDASSLQSGVPSRFSGSGSGTDFTLTISSLQPEDFATYYCQQYYYESITFGQGTKVEIKR : 6 ng/mL

Query string: Indicate its recorded EC50 (ng/ml), cell viability after 7 days, Human total nucleated cells; the binder in question is J14: Anti-cKIT Fab′1 conjugated to mc-MMAF, DAR 4 (Fab, V domains shown, mc-MMAF on native cysteine LC-214C (EU); mc-MMAF on native cysteines HC-220C-226C-229C (EU)) VH: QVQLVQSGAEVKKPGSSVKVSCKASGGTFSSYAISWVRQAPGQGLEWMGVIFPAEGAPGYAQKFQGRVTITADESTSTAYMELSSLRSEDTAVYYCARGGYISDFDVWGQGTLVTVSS VL: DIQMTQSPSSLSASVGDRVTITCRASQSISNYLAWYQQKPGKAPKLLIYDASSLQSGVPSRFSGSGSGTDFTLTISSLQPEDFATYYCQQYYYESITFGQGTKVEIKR
Result string: 7 ng/mL

Query string: Indicate its recorded EC50 (ng/ml), cell viability after 7 days, Human total nucleated cells; the binder in question is J18: Anti-cKIT Fab′2 conjugated to Compound (5), DAR 4 (Fab, V domains shown, Compound (5) on native cysteine LC-214C (EU); Compound (5) on native cysteines HC-220C-226C-229C (EU)) VH: QVQLVQSGAEVKKPGSSVKVSCKASGGTFSSHALSWVRQAPGQGLEWMGGIIPSFGTADYAQKFQGRVTITADESTSTAYMELSSLRSEDTAVYYCARGLYDFDYWGQGTLVTVSS VL: DIQMTQSPSSLSASVGDRVTITCRASQDISQDLAWYQQKPGKAPKLLIYDASSLQSGVPSRFSGSGSGTDFTLTISSLQPEDFAVYYCQQYYYLPSTFGQGTKVEIKR
Result string: 15 ng/mL
